# System: Vero E6 infected with SARS-CoV-2
# assay comment: inhibition of SARS-CoV-2 cytopathic effect; higher = more antiviral protection, active = above 15
# condition parameters: 10000 nM; 48 h
In this section we review reported inhibition of SARS-CoV-2 cytopathic effect values for a set of compounds.
Numeric answer only, unit % assumed.

# annotated cases, reported inhibition of SARS-CoV-2 cytopathic effect shown
Cc1cc(CCCOc2c(C)cc(-c3noc(C(F)(F)F)n3)cc2C)on1 : -1.34
CC(C)c1ccc(C(=O)c2cccs2)c(SCCCCCCCCN(C)C)n1 : 68.5
CC(=O)[C@@]1(O)CC[C@H]2[C@@H]3C=C(Cl)C4=CC(=O)[C@@H]5C[C@@H]5[C@]4(C)[C@H]3CC[C@@]21C : -4.41

Lookup: Item CCNC(=O)c1n[nH]c(-c2cc(Cl)c(O)cc2O)c1-c1ccc(OC)cc1 has what recorded inhibition of SARS-CoV-2 cytopathic effect?
Found: -0.29

Lookup: Item CCC(c1ccccc1)c1c(O)c2ccccc2oc1=O (stereo not drawn) has what recorded inhibition of SARS-CoV-2 cytopathic effect?
Found: -0.87

Lookup: Item O=C1CN(/N=C/c2ccc(-c3ccc([N+](=O)[O-])cc3)o2)C(=O)N1 has what recorded inhibition of SARS-CoV-2 cytopathic effect?
Found: 1.97

Lookup: Item CC(=O)O[C@]1(C(C)=O)CC[C@H]2[C@@H]3C[C@H](C)C4=CC(=O)CC[C@]4(C)[C@H]3CC[C@@]21C [medroxyprogesterone-acetate] has what recorded inhibition of SARS-CoV-2 cytopathic effect?
Found: 6.49

Lookup: Item Cc1ccc(S(=O)(=O)OCC(=O)Nc2ccc(C(=O)O)c(O)c2)cc1 has what recorded inhibition of SARS-CoV-2 cytopathic effect?
Found: 1.39

Lookup: Item Cc1ccc(S(=O)(=O)NC(=O)NN2CCCCCC2)cc1 [tolazamide] has what recorded inhibition of SARS-CoV-2 cytopathic effect?
Found: 2.51

Lookup: Item CC(=O)OC[C@H]1O[C@@H]([S-])[C@H](OC(C)=O)[C@@H](OC(C)=O)[C@@H]1OC(C)=O.CCP(CC)CC.[Au+] has what recorded inhibition of SARS-CoV-2 cytopathic effect?
Found: -21.1

Lookup: Item CC(C)N(CCNC(=O)CN1CCCC1=O)C(C)C has what recorded inhibition of SARS-CoV-2 cytopathic effect?
Found: 0.12

Lookup: Item Nc1nc2cc(-c3ccc4ncc(C(=O)N5CCOCC5)n4c3)ccc2o1 has what recorded inhibition of SARS-CoV-2 cytopathic effect?
Found: -2.33

Lookup: Item CCNC(=O)[C@@H]1CCCN1C(=O)[C@H](CCCNC(=N)N)NC(=O)[C@H](CC(C)C)NC(=O)[C@@H](CC(C)C)NC(=O)[C@H](Cc1ccc(O)cc1)NC(=O)[C@H](CO)NC(=O)[C@H](Cc1c[nH]c2ccccc12)NC(=O)[C@H](Cc1c[nH]cn1)NC(=O)[C@@H]1CCC(=O)N1 [leuprolide] has what recorded inhibition of SARS-CoV-2 cytopathic effect?
Found: -1.48

* * *

# System: Vero E6 infected with SARS-CoV-2
# assay comment: SARS-CoV-2 infection rate relative to infected DMSO; higher = more infection, active = 60 or less
# condition parameters: 24 h
observed property: SARS-CoV-2 infection rate (%)
Numeric answer only, unit % assumed.

CSc1ccc2c(c1)[C@H](N1CCN(C)CC1)Cc1ccccc1S2 (racemic) [metitepine] (0.833333 µM) : 112
CC1=C(C(=O)OC(C)C)C(c2cccc([N+](=O)[O-])c2)C(C(=O)OC2CN(C(c3ccccc3)c3ccccc3)C2)=C(N)N1 (centres undefined) [azelnidipine] (10 µM) : 71.5
N=C(N)NCCCC[C@@H]1NC(=O)CCSSC[C@@H](C(N)=O)NC(=O)[C@@H]2CCCN2C(=O)[C@H](Cc2c[nH]c3ccccc23)NC(=O)[C@H](CC(=O)O)NC(=O)CNC1=O [eptifibatide] (10 µM) : 118
C#C[C@]1(O)CC[C@H]2[C@@H]3CCC4=CC(=O)CCC4=C3C=C[C@@]21CC [gestrinone] (10 µM) : 103
CC(C)CNc1ccnc(NCc2csc(-c3ccccc3)n2)n1 (0.833333 µM) : 106

Lookup: Item O=C(C[S+]([O-])C(c1ccccc1)c1ccccc1)NO (centres undefined) [adrafinil] (10 µM) has what recorded SARS-CoV-2 infection rate?
Found: 100

Lookup: Item O=C(NOCCO)c1ccc2cncn2c1Nc1ccc(I)cc1F (0.833333 µM) has what recorded SARS-CoV-2 infection rate?
Found: 121

Lookup: Item CC(C)=CCC[C@]1(C)C=Cc2c(O)c3c(c(CC=C(C)C)c2O1)O[C@]12C(=C[C@@H]4C[C@H]1C(C)(C)O[C@@]2(C/C=C(/C)C(=O)O)C4=O)C3=O [gambogic-acid] (10 µM) has what recorded SARS-CoV-2 infection rate?
Found: 106

Lookup: Item COc1ccc2[nH]cc(CCNC(C)=O)c2c1 [melatonin] (10 µM) has what recorded SARS-CoV-2 infection rate?
Found: 105

Lookup: Item Cn1c(=O)c2c(ncn2CC2OCCO2)n(C)c1=O [doxofylline] (10 µM) has what recorded SARS-CoV-2 infection rate?
Found: 106

Lookup: Item OC(CNCC(O)C1CCc2cc(F)ccc2O1)C1CCc2cc(F)ccc2O1 (centres undefined) [nebivolol] (10 µM) has what recorded SARS-CoV-2 infection rate?
Found: 108

Lookup: Item CC(C)Oc1cccc(CC(=O)N2CCC[C@](CC[N+]34CCC(c5ccccc5)(CC3)CC4)(c3ccc(Cl)c(Cl)c3)C2)c1 (10 µM) has what recorded SARS-CoV-2 infection rate?
Found: 110

Lookup: Item N#Cc1cnc2c(Cl)cc(NCc3cn(CCN4CCCCCC4)nn3)cc2c1Nc1ccc(F)c(Cl)c1 [cot-inhibitor-1] (10 µM) has what recorded SARS-CoV-2 infection rate?
Found: 104

* * *

# Tested on: Vero E6 infected with SARS-CoV-2
# assay comment: SARS-CoV-2 infection rate relative to infected DMSO; higher = more infection, active = 60 or less
# condition parameters: 24 h
A correct response names exactly one class from yes (active), no (inactive)

O=c1c(O[C@@H]2O[C@H](CO)[C@H](O)[C@H](O)[C@H]2O)c(-c2ccc(O)c(O)c2)oc2cc(O)cc(O)c12 [hyperin] (10 µM) : no
C/C(=N\NC(=S)N1CCC1)c1ccccn1 (0.833333 µM) : no
CC(C)(C)C(=O)OCC(=O)[C@H]1CC[C@H]2[C@@H]3CCC4=CC(=O)CC[C@]4(C)[C@H]3CC[C@]12C [desoxycorticosterone-pivalate] (10 µM) : no
C=CCN(C)CCCCCCOc1ccc(C(=O)c2ccc(Br)cc2)c(F)c1 (10 µM) : yes
CN(C)Cc1cccc(N/C(=C2\C(=O)Nc3cc(C(N)=O)ccc32)c2ccccc2)c1 (10 µM) : no
N#C/C(=C\c1ccc(O)c(O)c1)C(N)=O [tyrphostin-AG-99] (10 µM) : no
CN1CCOC(c2ccccc2)c2ccccc2C1 (stereo not drawn) [nefopam] (10 µM) : no
C[C@@]1(O)[C@H](O)[C@@H](CO)O[C@H]1n1ccc(N)nc1=O (10 µM) : no
CN(CCOc1ccc(CC2SC(=O)NC2=O)cc1)c1ccccn1 (stereo not drawn) [rosiglitazone] (10 µM) : no
CCc1nn(CCO)c(CC)c1Oc1cc(C#N)cc(C#N)c1 [lersivirine] (10 µM) : no

Now for a further compound.
Lookup: Hey, what did the test say about NC(=O)c1cccc2cn(-c3ccc([C@@H]4CCCNC4)cc3)nc12 [niraparib] (0.833333 µM) ?
Found: no

* * *

# Test system: Vero E6 infected with SARS-CoV-2
# assay comment: inhibition of SARS-CoV-2 cytopathic effect; higher = more antiviral protection, active = above 15
# condition parameters: 100 nM; 48 h
observed property: inhibition of SARS-CoV-2 cytopathic effect (%)
Numeric answer only, unit % assumed.

# annotated cases, reported inhibition of SARS-CoV-2 cytopathic effect shown
COc1ccc(-c2ccc3c(N4CCOCC4)nc(N4C[C@@H](C)O[C@@H](C)C4)nc3n2)cc1CO : 2.09
CC[C@H](CO)Nc1nc(NCc2ccccc2)c2ncn(C(C)C)c2n1 : -0.4

Lookup: Item Cn1nnc(-c2ccc(-c3ccc(N4C[C@H](COP(=O)(O)O)OC4=O)cc3F)cn2)n1 [tedizolid-phosphate] has what recorded inhibition of SARS-CoV-2 cytopathic effect?
Found: -0.65

* * *

# System: Vero E6 infected with SARS-CoV-2
# assay comment: inhibition of SARS-CoV-2 cytopathic effect; higher = more antiviral protection, active = above 15
# condition parameters: 1 nM; 48 h
observed property: inhibition of SARS-CoV-2 cytopathic effect (%)
Numeric answer only, unit % assumed.

O=C1Cc2cc(CCN3CCN(c4nsc5ccccc45)CC3)c(Cl)cc2N1 [ziprasidone] : -0.08

Lookup: Item Cc1ccccc1/N=N/c1ccc(NC(=O)c2ccnn2C)c(C)c1 has what recorded inhibition of SARS-CoV-2 cytopathic effect?
Found: -1.46

Lookup: Item O=C(Nc1ccc([N+](=O)[O-])cc1O)Nc1ccccc1Br has what recorded inhibition of SARS-CoV-2 cytopathic effect?
Found: 0.2

Lookup: Item CCCCOc1ccc(C(=O)CCN2CCCCC2)cc1 [dyclonine] has what recorded inhibition of SARS-CoV-2 cytopathic effect?
Found: 2.76

Lookup: Item CCCCc1oc2ccc(NS(C)(=O)=O)cc2c1C(=O)c1ccc(OCCCN(CCCC)CCCC)cc1 [dronedarone] has what recorded inhibition of SARS-CoV-2 cytopathic effect?
Found: 3.27

Lookup: Item O=C(NCCNCC(O)COc1ccc(O)cc1)N1CCOCC1 (stereo not given) [xamoterol] has what recorded inhibition of SARS-CoV-2 cytopathic effect?
Found: -2.07

Lookup: Item COc1ncc(-c2ccc3nccc(-c4ccnnc4)c3c2)cc1NS(=O)(=O)c1ccc(F)cc1F has what recorded inhibition of SARS-CoV-2 cytopathic effect?
Found: -1.37

Lookup: Item CC(C)CCN1c2nc(Nc3cc(F)c(O)c(F)c3)ncc2N(C)C(=O)[C@@H]1C has what recorded inhibition of SARS-CoV-2 cytopathic effect?
Found: -1.15

Lookup: Item CC[C@@H]1Cn2c(c3nc(-c4ccccc4)nc-3n(C)c2=O)N1 has what recorded inhibition of SARS-CoV-2 cytopathic effect?
Found: -0.6

Lookup: Item CC(C)NNC(=O)c1ccncc1 [iproniazid] has what recorded inhibition of SARS-CoV-2 cytopathic effect?
Found: 0.77
